Organism: Rattus norvegicus
Assay: Open TG-GATES - Regimen: Daily Repeat
Assay type: toxicity, organism-based, Sprague-Dawley
Design: regimen Daily Repeat, gender Male, age 6 weeks
Conditions: in vivo, po, 0 mg/kg, 72 h, tissue Plasma, route gavage, dose level Control, time 3 day
Test readout: Cl (meq/L)
Number in meq/L, nothing else.

COc1ccc(O)c(C(C)(C)C)c1.COc1ccc(O)cc1C(C)(C)C [BUTYLATED HYDROXYANISOLE]	106
Cn1c(=O)c2c(ncn2C)n(C)c1=O	108.2
Cc1cccc(Nc2cc(Cl)nc(SCC(=O)O)n2)c1C	105.4

Give the measured Cl of "C=CCO" .
103.4

Now try "O=C1CN(/N=C/c2ccc(-c3ccc([N+](=O)[O-])cc3)o2)C(O)=N1" .
104

How about this compound: "Cn1cnc([N+](=O)[O-])c1Sc1ncnc2nc[nH]c12"
105.8

// repeat for O=P1(N(CCCl)CCCl)NCCCO1 (centres undefined) [CYCLOPHOSPHAMIDE ANHYDROUS] and report
106.2

Query COc1ccc(Cl)cc1C(=O)NCCc1ccc(S(=O)(=O)NC(=O)NC2CCCCC2)cc1 [GLYBURIDE] next
102.4

Input CS(=O)(=O)Nc1ccc([N+](=O)[O-])cc1Oc1ccccc1 [NIMESULIDE]
105
